Data provenance is the NIST ThermoML archive (doi:10.1021/acs.jced.7b00060).

- RUN DESCRIPTION: refractive index (Na D-line) (dimensionless)
- SETUP CONDITIONS: 313.15 K; 101.33 kPa; Liquid; Standard Abbe refractometry
Catalogue of refractive index readings, one per entry.

{"columns": ["COMPOUND", "refractive index"],
 "data": [
  ["CCCC[n+]1ccccc1.O=S(=O)([N-]S(=O)(=O)C(F)(F)F)C(F)(F)F [1-butylpyridinium bis[(trifluoromethyl)sulfonyl]imide]", 1.4384],
  ["CC[S+](C)CC.O=S(=O)([N-]S(=O)(=O)C(F)(F)F)C(F)(F)F [diethylmethylsulfonium bis[(trifluoromethyl)sulfonyl]imide]", 1.419],
  ["CCCC[N+]1(C)CCCC1.N#CN=C=[N-] [1-butyl-1-methylpyrrolidinium dicyanamide]", 1.4832],
  ["CC[S+](CC)CC.O=S(=O)([N-]S(=O)(=O)C(F)(F)F)C(F)(F)F [triethylsulfonium bis((trifluoromethyl)sulfonyl)imide]", 1.4219]
]}

====

- SETUP CONDITIONS: 288.15 K; 101.33 kPa; Liquid; Falling or rolling sphere viscometry
viscosity values for the compounds below.

{"columns": ["COMPOUND", "viscosity / mPa·s"],
 "data": [
  ["CC[S+](CC)CC.O=S(=O)([N-]S(=O)(=O)C(F)(F)F)C(F)(F)F [triethylsulfonium bis((trifluoromethyl)sulfonyl)imide]", 49.88],
  ["CCCCCCCC[N+](C)(CCCCCCCC)CCCCCCCC.O=C([O-])C(F)(F)F [methyltrioctylammonium trifluoroacetate]", 3629],
  ["CC[S+](C)CC.O=S(=O)([N-]S(=O)(=O)C(F)(F)F)C(F)(F)F [diethylmethylsulfonium bis[(trifluoromethyl)sulfonyl]imide]", 61.05],
  ["CCCC[n+]1ccccc1.O=S(=O)([N-]S(=O)(=O)C(F)(F)F)C(F)(F)F [1-butylpyridinium bis[(trifluoromethyl)sulfonyl]imide]", 100.9]
]}

====

- SETUP CONDITIONS: 318.15 K; 101.33 kPa; Liquid; Alternating current cell with electrodes

{"columns": ["MOLECULE", "electrical conductivity"],
 "data": [
  ["CC[S+](C)CC.O=S(=O)([N-]S(=O)(=O)C(F)(F)F)C(F)(F)F [diethylmethylsulfonium bis[(trifluoromethyl)sulfonyl]imide]", "1.26 S/m"],
  ["CC[S+](CC)CC.O=S(=O)([N-]S(=O)(=O)C(F)(F)F)C(F)(F)F [triethylsulfonium bis((trifluoromethyl)sulfonyl)imide]", "1.29 S/m"],
  ["CCCC[n+]1ccccc1.O=S(=O)([N-]S(=O)(=O)C(F)(F)F)C(F)(F)F [1-butylpyridinium bis[(trifluoromethyl)sulfonyl]imide]", "0.677 S/m"],
  ["CCCCCCCC[N+](C)(CCCCCCCC)CCCCCCCC.O=C([O-])C(F)(F)F [methyltrioctylammonium trifluoroacetate]", "0.0063 S/m"]
]}

====

- SETUP CONDITIONS: 358.15 K; 101.33 kPa; Liquid; Falling or rolling sphere viscometry
# reported viscosity; entries follow

{"columns": ["COMPOUND", "viscosity, mPa·s"],
 "data": [
  ["CC[S+](C)CC.O=S(=O)([N-]S(=O)(=O)C(F)(F)F)C(F)(F)F [diethylmethylsulfonium bis[(trifluoromethyl)sulfonyl]imide]", 8.183],
  ["CCCCCCCC[N+](C)(CCCCCCCC)CCCCCCCC.O=C([O-])C(F)(F)F [methyltrioctylammonium trifluoroacetate]", 53.33],
  ["CCCC[n+]1ccccc1.O=S(=O)([N-]S(=O)(=O)C(F)(F)F)C(F)(F)F [1-butylpyridinium bis[(trifluoromethyl)sulfonyl]imide]", 9.663],
  ["CC[S+](CC)CC.O=S(=O)([N-]S(=O)(=O)C(F)(F)F)C(F)(F)F [triethylsulfonium bis((trifluoromethyl)sulfonyl)imide]", 6.963]
]}

====

- RUN DESCRIPTION: refractive index (Na D-line) (dimensionless)
- SETUP CONDITIONS: 338.15 K; 101.33 kPa; Liquid; Standard Abbe refractometry

{"columns": ["MOLECULE", "refractive index"],
 "data": [
  ["CC[S+](CC)CC.O=S(=O)([N-]S(=O)(=O)C(F)(F)F)C(F)(F)F [triethylsulfonium bis((trifluoromethyl)sulfonyl)imide]", 1.4148],
  ["CCCC[n+]1ccccc1.O=S(=O)([N-]S(=O)(=O)C(F)(F)F)C(F)(F)F [1-butylpyridinium bis[(trifluoromethyl)sulfonyl]imide]", 1.4309],
  ["CC[S+](C)CC.O=S(=O)([N-]S(=O)(=O)C(F)(F)F)C(F)(F)F [diethylmethylsulfonium bis[(trifluoromethyl)sulfonyl]imide]", 1.4118],
  ["CCCC[N+]1(C)CCCC1.N#CN=C=[N-] [1-butyl-1-methylpyrrolidinium dicyanamide]", 1.479]
]}

====

- SETUP CONDITIONS: 308.15 K; 101.33 kPa; Liquid; Alternating current cell with electrodes
READOUT LABEL: electrical conductivity (S/m)

{"columns": ["COMPOUND", "READOUT LABEL", "ENDPOINT VALUE"],
 "data": [
  ["CC[S+](CC)CC.O=S(=O)([N-]S(=O)(=O)C(F)(F)F)C(F)(F)F [triethylsulfonium bis((trifluoromethyl)sulfonyl)imide]", "electrical conductivity", 0.975],
  ["CCCCCCCC[N+](C)(CCCCCCCC)CCCCCCCC.O=C([O-])C(F)(F)F [methyltrioctylammonium trifluoroacetate]", "electrical conductivity", 0.00329],
  ["CC[S+](C)CC.O=S(=O)([N-]S(=O)(=O)C(F)(F)F)C(F)(F)F [diethylmethylsulfonium bis[(trifluoromethyl)sulfonyl]imide]", "electrical conductivity", 0.95],
  ["CCCC[n+]1ccccc1.O=S(=O)([N-]S(=O)(=O)C(F)(F)F)C(F)(F)F [1-butylpyridinium bis[(trifluoromethyl)sulfonyl]imide]", "electrical conductivity", 0.483]
]}

====

refractive index listing for selected molecules.
- RUN DESCRIPTION: refractive index (Na D-line) (dimensionless)
- SETUP CONDITIONS: 318.15 K; 101.33 kPa; Liquid; Standard Abbe refractometry

{"columns": ["MOLECULE", "refractive index"],
 "data": [
  ["CC[S+](C)CC.O=S(=O)([N-]S(=O)(=O)C(F)(F)F)C(F)(F)F [diethylmethylsulfonium bis[(trifluoromethyl)sulfonyl]imide]", 1.4175],
  ["CC[S+](CC)CC.O=S(=O)([N-]S(=O)(=O)C(F)(F)F)C(F)(F)F [triethylsulfonium bis((trifluoromethyl)sulfonyl)imide]", 1.4204],
  ["CCCC[N+]1(C)CCCC1.N#CN=C=[N-] [1-butyl-1-methylpyrrolidinium dicyanamide]", 1.4826],
  ["CCCC[n+]1ccccc1.O=S(=O)([N-]S(=O)(=O)C(F)(F)F)C(F)(F)F [1-butylpyridinium bis[(trifluoromethyl)sulfonyl]imide]", 1.4369]
]}

====

- RUN DESCRIPTION: refractive index (Na D-line) (dimensionless)
- SETUP CONDITIONS: 323.15 K; 101.33 kPa; Liquid; Standard Abbe refractometry
Entries and their refractive index values follow.

{"columns": ["COMPOUND", "refractive index"],
 "data": [
  ["CC[S+](C)CC.O=S(=O)([N-]S(=O)(=O)C(F)(F)F)C(F)(F)F [diethylmethylsulfonium bis[(trifluoromethyl)sulfonyl]imide]", 1.4161],
  ["CC[S+](CC)CC.O=S(=O)([N-]S(=O)(=O)C(F)(F)F)C(F)(F)F [triethylsulfonium bis((trifluoromethyl)sulfonyl)imide]", 1.419],
  ["CCCC[N+]1(C)CCCC1.N#CN=C=[N-] [1-butyl-1-methylpyrrolidinium dicyanamide]", 1.4818],
  ["CCCC[n+]1ccccc1.O=S(=O)([N-]S(=O)(=O)C(F)(F)F)C(F)(F)F [1-butylpyridinium bis[(trifluoromethyl)sulfonyl]imide]", 1.4354]
]}

====

Entries and their mass density values follow.
- SETUP CONDITIONS: 328.15 K; 101.33 kPa; Liquid; Vibrating tube method

{"columns": ["MOLECULE", "mass density (kg/m3)"],
 "data": [
  ["CCCC[n+]1ccccc1.O=S(=O)([N-]S(=O)(=O)C(F)(F)F)C(F)(F)F [1-butylpyridinium bis[(trifluoromethyl)sulfonyl]imide]", 1420.8],
  ["CCCCCCCC[N+](C)(CCCCCCCC)CCCCCCCC.O=C([O-])C(F)(F)F [methyltrioctylammonium trifluoroacetate]", 943.335],
  ["CC[S+](CC)CC.O=S(=O)([N-]S(=O)(=O)C(F)(F)F)C(F)(F)F [triethylsulfonium bis((trifluoromethyl)sulfonyl)imide]", 1431.52],
  ["CC[S+](C)CC.O=S(=O)([N-]S(=O)(=O)C(F)(F)F)C(F)(F)F [diethylmethylsulfonium bis[(trifluoromethyl)sulfonyl]imide]", 1471.73]
]}

====

- SETUP CONDITIONS: 338.15 K; 101.33 kPa; Liquid; Vibrating tube method
Each entry below lists one item and its recorded mass density value.
READOUT LABEL: mass density (kg/m3)

{"columns": ["COMPOUND", "ENDPOINT VALUE"],
 "data": [
  ["CC[S+](C)CC.O=S(=O)([N-]S(=O)(=O)C(F)(F)F)C(F)(F)F [diethylmethylsulfonium bis[(trifluoromethyl)sulfonyl]imide]", 1462.25],
  ["CC[S+](CC)CC.O=S(=O)([N-]S(=O)(=O)C(F)(F)F)C(F)(F)F [triethylsulfonium bis((trifluoromethyl)sulfonyl)imide]", 1422.15],
  ["CCCC[n+]1ccccc1.O=S(=O)([N-]S(=O)(=O)C(F)(F)F)C(F)(F)F [1-butylpyridinium bis[(trifluoromethyl)sulfonyl]imide]", 1411.66],
  ["CCCCCCCC[N+](C)(CCCCCCCC)CCCCCCCC.O=C([O-])C(F)(F)F [methyltrioctylammonium trifluoroacetate]", 937.046]
]}
